Hi there, I'd appreciate the recorded pIC50 for every entry that follows.
molecular target: HIV-1 pNL4-3 integrase (Human immunodeficiency virus type 1 group M subtype B (isolate NY5) (HIV-1)); experiment: Determination of enzyme (HIV integrase) inhibitory activity; settings: calculated from inhibition rate (fluorescence)
One number for each entry, as −log10 of the molar value.

>>> print(df.to_string())
                                   molecule  number
0  COC[C@@H]1Cn2cc(-c3nnc(Cc4ccc(F)c(F)c4)s3)c(=O)c(O)c2C(=O)N1C(C)C    8.21
1  CC(C)N1C(=O)c2c(O)c(=O)c(-c3nnc(Cc4ccc(F)cc4F)s3)cn2CC1C(=O)N(C)C (stereo not drawn)    8.00
2  COCC1CN(C(=O)[C@@]2(C)CN(C(C)C)C(=O)c3c(O)c(=O)c(-c4ncc(Cc5ccc(F)cc5)s4)cn32)C1    7.74
3  CCNC(=O)C1CN(C(C)C)C(=O)c2c(O)c(=O)c(-c3ncc(Cc4ccc(F)cc4F)s3)cn21 (stereo not drawn)    7.96
4  COC1CN(C(=O)[C@@]2(C)CN(C(C)C)C(=O)c3c(O)c(=O)c(-c4nnc(Cc5ccc(F)cc5)s4)cn32)C1    7.92

# evaluate next
Input: Given the molecule `CCNC(=O)[C@@]1(C)CN(C(C)C)C(=O)c2c(O)c(=O)c(-c3ncc(Cc4ccc(F)cc4)s3)cn21` , write its reported pIC50.
Output: 7.80

---

target: HIV-1 pNL4-3 integrase (Human immunodeficiency virus type 1 group M subtype B (isolate NY5) (HIV-1)); assay: Determination of enzyme (HIV integrase) inhibitory activity; settings: calculated from inhibition rate (fluorescence)
Criterion: IC50 strictly less than 10 nM. Met: satisfied. Not met: not satisfied.

The examples below pair each entry with its known result.
                                   compound            cat
0  CNC(=O)CC1CN(C(C)C)C(=O)c2c(O)c(=O)c(-c3ncc(Cc4ccc(F)cc4F)s3)cn21 (centres unmarked) [Example 34]      satisfied
1  CC(C)C(=O)NCC1CN(C(C)C)C(=O)c2c(O)c(=O)c(-c3ncc(Cc4ccc(F)cc4F)s3)cn21 (centres unmarked) [Example 69]  not satisfied
2  CC[C@H](C)N1C[C@H](COC)n2cc(-c3nnc(Cc4ccc(F)cc4F)s3)c(=O)c(O)c2C1=O [Example 135]  not satisfied

Input: Please check: IC50 for CN(C)C(=O)[C@@]1(C)CN(C)C(=O)c2c(O)c(=O)c(-c3ncc(Cc4ccc(F)cc4)s3)cn21 [Example 314] , strictly under 10 nM or not?
Output: satisfied

Input: Please check: IC50 for COC[C@H]1[C@@H](C)n2cc(-c3nnc(Cc4ccc(F)cc4)s3)c(=O)c(O)c2C(=O)N1C(C)C [Example 353] , strictly under 10 nM or not?
Output: not satisfied

Input: Please check: IC50 for CNC(=O)[C@@]1(C)CN(C(C)C)C(=O)c2c(O)c(=O)c(-c3nnc(Cc4ccc(F)cc4)s3)cn21 [Example 185] , strictly under 10 nM or not?
Output: not satisfied

---

molecular target: HIV-1 pNL4-3 integrase (Human immunodeficiency virus type 1 group M subtype B (isolate NY5) (HIV-1), UniProt P12497); test: Determination of enzyme (HIV integrase) inhibitory activity; settings: calculated from inhibition rate (fluorescence)
Parameter: pIC50
One number for each entry, as −log10 of the molar value.

Answered examples (5):
                                   compound  number
0  CCN1C[C@@H](COCCOC)n2cc(-c3nnc(Cc4ccc(F)cc4F)s3)c(=O)c(O)c2C1=O    7.85
1  CCC(=O)N(C)C[C@@]1(C)CN(C(C)C)C(=O)c2c(O)c(=O)c(-c3nnc(Cc4ccc(F)cc4F)s3)cn21    7.62
2  COCCOC[C@H]1CN(CC2CC2)C(=O)c2c(O)c(=O)c(-c3nnc(Cc4ccc(F)cc4)s3)cn21    7.89
3  COCCOC[C@H]1Cn2cc(-c3nnc(Cc4ccc(F)cc4F)s3)c(=O)c(O)c2C(=O)N1C(C)C    7.77
4  COCC1(C)CN(C(C)C)C(=O)c2c(O)c(=O)c(-c3ncc(Cc4ccc(F)cc4F)s3)cn21 (stereo not drawn)    7.80

Report pIC50 for each item below.
1. CCN1C(=O)c2c(O)c(=O)c(-c3ncc(Cc4ccc(F)cc4)s3)cn2C[C@H]1C(C)C
2. CCN1C[C@@H](COCCOC)n2cc(-c3nnc(Cc4ccc(F)cc4)s3)c(=O)c(O)c2C1=O
3. COC[C@H]1CN(C(C)C)C(=O)c2c(O)c(=O)c(-c3nnc(Cc4ccc(F)cc4C4CC4)s3)cn21
4. COCCOCC1(C)CN(C(C)C)C(=O)c2c(O)c(=O)c(-c3ncc(Cc4ccc(F)cc4F)s3)cn21 (stereo not drawn)

Output:
[8.21, 7.72, 7.96, 7.72]

Ref: patent US10065950B2
